Attribute: pIC50
# Test System: human M1 receptor (Homo sapiens)
# Sequence (P11229 whole entry): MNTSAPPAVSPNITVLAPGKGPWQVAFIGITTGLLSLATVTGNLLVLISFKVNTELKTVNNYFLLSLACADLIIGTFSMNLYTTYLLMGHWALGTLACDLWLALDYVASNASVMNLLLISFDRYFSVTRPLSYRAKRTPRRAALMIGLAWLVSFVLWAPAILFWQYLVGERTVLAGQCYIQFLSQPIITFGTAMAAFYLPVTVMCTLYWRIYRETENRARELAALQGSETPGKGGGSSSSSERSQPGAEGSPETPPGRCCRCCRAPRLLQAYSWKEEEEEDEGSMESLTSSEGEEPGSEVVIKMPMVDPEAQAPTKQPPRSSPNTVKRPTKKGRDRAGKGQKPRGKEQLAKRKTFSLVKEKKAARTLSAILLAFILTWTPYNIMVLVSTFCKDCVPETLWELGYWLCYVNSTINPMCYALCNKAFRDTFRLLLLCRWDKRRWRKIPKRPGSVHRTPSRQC
# Assay Info: In vitro functional assay of muscarinic acetylcholine receptor activity (aequorin calcium flux, antagonist mode vs EC80 acetylcholine), M1
# Experimental Context: CHO-K1 cells stably expressing human M1 receptor with Aequorin; decrease in EC80 acetylcholine response
pIC50: −log10 of the molar value.

Some solved entries appear below for comparison.
* N#Cc1ccc(N2CCN3C(=O)[C@@H](CCCc4cccn5ccnc45)C[C@H]3C2)nc1 [Example 15] | 6.00 to 7.00
* N#Cc1ccc(N2CCN3C(=O)[C@@H](CCCc4cccn5ncnc45)C[C@H]3C2)cn1 [Example 67] | > 7.00
* N#Cc1ccc(N2CCN3C(=O)[C@@H](CCCc4cccc5ncccc45)C[C@H]3C2)nc1 [Example 59] | > 7.00
* N#Cc1ccc(N2CCN3C(=O)[C@@H](CCCc4cccc5c4NCCN5)C[C@H]3C2)nc1 [Example 61] | 6.00 to 7.00
* COc1ccc(N2CCN3C(=O)[C@@H](CCCc4cccc5ncnn45)C[C@H]3C2)cn1 [Example 38] | 5.00 to 6.00

Alright, here's another compound for you.
[ask] Write down pIC50 measured for item O=C1[C@@H](CCCc2cccn3ncnc23)C[C@H]2CN(c3ncc(Cl)cn3)CCN12 [Example 64]
[reply] > 7.00

* * *

# Test System: M2 (Homo sapiens)
# Sequence (P08172 whole entry): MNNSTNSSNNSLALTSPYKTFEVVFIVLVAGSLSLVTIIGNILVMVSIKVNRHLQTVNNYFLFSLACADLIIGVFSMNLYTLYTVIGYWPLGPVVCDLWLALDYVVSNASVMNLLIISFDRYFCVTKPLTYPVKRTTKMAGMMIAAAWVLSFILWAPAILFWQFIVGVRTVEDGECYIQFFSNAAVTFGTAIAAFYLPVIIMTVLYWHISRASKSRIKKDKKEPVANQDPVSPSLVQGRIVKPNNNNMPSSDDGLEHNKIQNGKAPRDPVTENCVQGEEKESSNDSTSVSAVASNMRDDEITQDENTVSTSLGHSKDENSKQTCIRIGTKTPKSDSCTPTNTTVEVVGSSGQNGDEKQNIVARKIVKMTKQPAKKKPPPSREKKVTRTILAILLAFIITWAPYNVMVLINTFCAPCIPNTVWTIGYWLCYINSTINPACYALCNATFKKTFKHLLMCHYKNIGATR
# Assay Info: In vitro functional assay of muscarinic acetylcholine receptor activity, M2
# Experimental Context: antagonist activity; M2 method not separately described
# Experimental: [The procedure below names another target; the source lists this target under the same test.] CHO-K1 cells stably expressing human M1 receptor with Aequorin (Perkin Elmer) were grown in F12 media, 10% FBS with 0.4 mg/mL geneticin and […]. Cells were grown to confluence and frozen down to be assayed at a later date. […] Calcium flux was measured using the FlexStation 3 (Molecular Devices). […] Antagonist activity was analyzed as a concentration dependent decrease in the EC80 acetylcholine response. […] The IC50 of the compounds was calculated from the dose response curve.
Attribute: IC50

Some solved entries appear below for comparison.
• N#Cc1ccc(N2CCN3C(=O)[C@@H](CCCc4cccc5ncoc45)C[C@H]3C2)nc1 = 0.1 to 1 µM
• N#Cc1ccc(N2CCN3C(=O)[C@@H](CCCc4cccc5c4NCCN5)C[C@H]3C2)nc1 = 1 to 10 µM
• O=C1[C@@H](CCCc2cccc3nccn23)C[C@H]2CN(c3ccncc3F)CCN12 = > 10 µM

Alright, here's another compound for you.
[ask] Provide IC50, tested on M2 (Homo sapiens), for `O=C1[C@H](CCCc2cccc3ncsc23)C[C@H]2CN(c3ccncc3F)CCN12` .
[reply] > 10 µM

* * *

# Test System: M3 (Homo sapiens, UniProt P20309)
# Sequence (P20309 whole entry): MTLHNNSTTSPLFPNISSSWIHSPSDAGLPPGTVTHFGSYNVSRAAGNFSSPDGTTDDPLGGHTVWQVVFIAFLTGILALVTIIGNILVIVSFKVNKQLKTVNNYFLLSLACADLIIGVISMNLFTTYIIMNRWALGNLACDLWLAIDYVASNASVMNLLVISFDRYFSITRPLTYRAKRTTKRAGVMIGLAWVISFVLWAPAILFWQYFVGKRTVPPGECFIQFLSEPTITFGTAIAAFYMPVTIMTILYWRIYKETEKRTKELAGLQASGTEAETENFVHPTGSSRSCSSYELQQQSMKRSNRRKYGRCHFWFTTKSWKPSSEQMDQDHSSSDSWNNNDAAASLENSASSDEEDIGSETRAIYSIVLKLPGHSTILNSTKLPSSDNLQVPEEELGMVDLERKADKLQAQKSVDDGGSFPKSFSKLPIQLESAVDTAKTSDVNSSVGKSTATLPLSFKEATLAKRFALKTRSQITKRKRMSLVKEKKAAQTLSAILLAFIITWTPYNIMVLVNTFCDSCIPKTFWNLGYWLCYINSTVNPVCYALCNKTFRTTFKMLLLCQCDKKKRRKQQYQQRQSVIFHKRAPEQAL
# Assay Info: In vitro functional assay of muscarinic acetylcholine receptor activity, M3
# Experimental Context: antagonist activity; M3 method not separately described
Readout Type: IC50

Some solved entries appear below for comparison.
- Cn1cnc2cccc(CCC[C@H]3C[C@H]4CN(c5ccc(C#N)cn5)CCN4C3=O)c21: 1000 to 10000 nM
- O=C1[C@@H](CCCc2cccn3ncnc23)C[C@H]2CN(c3ncc(F)cn3)CCN12: 1000 to 10000 nM
- N#Cc1ccc(N2CCN3C(=O)[C@@H](CCCc4ccc5c(c4)CCO5)C[C@H]3C2)nc1: 1000 to 10000 nM
- O=C1[C@H](CCCc2cccc3ncsc23)C[C@@H]2CN(c3ccncc3F)CCN12: > 10000 nM

[ask] Write down IC50 measured for item `N#Cc1ccc(N2CCN3C(=O)[C@@H](CCCc4cccn5ncnc45)C[C@H]3C2)cn1`
[reply] < 100 nM

[ask] Write down IC50 measured for item `O=C1[C@@H](CCCc2cccc3ncsc23)C[C@H]2CN(c3ccncc3F)CCN12`
[reply] 1000 to 10000 nM

[ask] Write down IC50 measured for item `Nc1cc(N2CCN3C(=O)[C@@H](CCCc4cccc5ncsc45)C[C@H]3C2)ccn1`
[reply] 1000 to 10000 nM

[ask] Write down IC50 measured for item `N#Cc1ccc(N2CCN3C(=O)[C@@H](CCCc4cccc5nncn45)C[C@H]3C2)nc1`
[reply] 100 to 1000 nM

[ask] Write down IC50 measured for item `CS(=O)(=O)c1ccc(N2CCN3C(=O)[C@@H](CCCc4cccc5ncsc45)C[C@H]3C2)nc1`
[reply] 100 to 1000 nM
